Test system: HCI01 (cells of a triple-negative basal-like breast cancer xenograft);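 also: PDX cells carrying CMV promoter-driven luciferase, viability read as total photon flux per second by IVIS imaging following D-luciferin, vehicle control 0.1% DMSO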
assay.summary: cell viability (% of vehicle); higher = less cytotoxic
applied.conditions: 10 µM; 72 h
# 1.0 = cell viability below 100 (exclusive); 0.0 = cell viability at/above 100

molecule	assigned.category
Nc1nc(=O)c2ncn(COC(CO)CO)c2[nH]1	1.0

Exercise: Consider CC12CCC3=C4CCC(=O)C=C4CCC3C1CCC2(O)CC#N (centres undefined) . Does its cell viability lie strictly below 100?
Solution: 0.0

Exercise: And the next one, CNCCCC12CCC(c3ccccc31)c1ccccc12.Cl [Maprotiline HCl] ?
Solution: 1.0

Exercise: And the next one, COc1c2occc2cc2ccc(=O)oc12 ?
Solution: 0.0

Exercise: And the next one, CCCCCCNC(=O)n1cc(F)c(=O)[nH]c1=O ?
Solution: 0.0

Exercise: And the next one, NC(=O)C1CCCc2c1[nH]c1ccc(Cl)cc21 (centres undefined) ?
Solution: 0.0

The measured values listed here are drawn from the supplement of paper PMC6992640.
